Measured pIC50 values are reported for all entries that follow.
- subjectOfTest: MAT2A recombinant protein (Homo sapiens)
- Sequence (P31153 whole entry): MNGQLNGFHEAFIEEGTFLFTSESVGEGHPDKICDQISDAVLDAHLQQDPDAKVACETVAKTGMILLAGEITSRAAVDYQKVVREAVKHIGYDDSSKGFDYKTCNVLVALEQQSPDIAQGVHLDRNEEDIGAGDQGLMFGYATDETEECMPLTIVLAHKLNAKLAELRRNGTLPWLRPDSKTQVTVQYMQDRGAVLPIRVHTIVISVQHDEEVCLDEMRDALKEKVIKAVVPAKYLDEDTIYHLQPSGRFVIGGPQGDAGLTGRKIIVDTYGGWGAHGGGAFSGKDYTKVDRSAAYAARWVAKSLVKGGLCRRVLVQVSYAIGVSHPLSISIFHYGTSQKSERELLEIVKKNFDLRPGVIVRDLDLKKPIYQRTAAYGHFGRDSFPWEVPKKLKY
- assayComment: MAT2A inhibitory activity (malachite green colorimetric enzyme assay)
- Type: biochemical
- assayConditions: IC50 score class; read-out: MAT2A Inhibition (score)
pIC50: −log10 of the molar value.
measuredParameter: pIC50

INSERT INTO results (compound, measuredparameter, value) VALUES
  ('Cn1cc2c(n1)c(=O)n(-c1ccc(OC(F)F)cc1)c1nc(C(F)(F)F)ccc21', 'pIC50', '> 7.00'),
  ('O=c1c2nn(C(F)F)cc2c2ccc(Cl)cc2n1-c1cccnc1', 'pIC50', '> 7.00'),
  ('Cn1cc2c(n1)c(=O)n(-c1ccc3ncoc3c1)c1nc(C(F)(F)F)ccc21', 'pIC50', '6.00 to 7.00'),
  ('CNC(=O)CC1N=c2c(c3ccc(Cl)cc3n(-c3cccnc3)c2=O)=N1 (centres unmarked)', 'pIC50', '> 7.00'),
  ('Cn1cnc2c(=O)n(-c3cccc4ccccc34)c3cc(Cl)c(C#N)cc3c21', 'pIC50', '< 6.00');
